- Test system: adult Ctenocephalides felis fleas
- procedure_details: Contact activity against adult Ctenocephalides felis (coated pipe cleaner in vial)
- Format: in vivo
- conditions: adult C. felis, mortality at 72 hours post-treatment, 22° C., 80% relative humidity, read-out: EC50 (contact activity, percentage mortality)
As shown below, each of these compounds has a reported EC50 value.

compound | target_or_system | measurement_name | recorded_value
CCS(=O)(=O)c1cc(-c2nnn(C)n2)cnc1-c1nc2cc(C(F)(F)C(F)(F)F)nnc2n1C [Compound 7] | adult Ctenocephalides felis fleas | EC50 | < 10 µM

Next:
Reported EC50 for CCS(=O)(=O)c1cc(-c2nnn(C)n2)cnc1-c1nc2cc(C(F)(F)C(F)(F)F)cnc2n1C [Compound 14] was 10 to 100 µM

Origin of measurements: patent US20240300957A1
